Tested on: L-363 cells
protocolDescription: Biological Assay C: antiproliferative activity on L-363 cells (CellTiter-Glo)
Type: cell-based, human
appliedConditions: Homo sapiens, L-363, 72 h, 72 hr treatment; averaged values
Mark class 1 only when EC50 stays strictly below 600 nM. Values equal to the cut-off are class 0.

- compound: "COCCn1cc(-c2ccnc(N)n2)c2cc(C#CC(C)(C)O)ncc21 [Compound 2]"
  categoryLabel: "class 1"
- compound: "COCCCn1cc(-c2nc(N)ncc2F)c2cc(C#CC3(O)CCCC3)ncc21 [Compound 87]"
  categoryLabel: "class 1"
- compound: "COCCNC(=O)c1c(-c2ccnc(N)n2)c2cc(C#CC(C)(C)O)ncc2n1C [Compound 69]"
  categoryLabel: "class 0"
- compound: "COCCn1cc(-c2ccnc(N)n2)c2cc(C#CC(C)(O)C3CC3)ncc21 (stereo not shown) [Compound 32]"
  categoryLabel: "class 0"
- compound: "COCCn1cc(-c2ccnc(N)n2)c2cc(C#CC(C)(O)c3ncco3)ncc21 (stereo not shown) [Compound 31]"
  categoryLabel: "class 0"

Read the next record carefully.
Query :: Determine if COCCCn1cc(-c2nc(N)ncc2F)c2cc(C#CC3(O)CCCC3)nc(C3CC3)c21 [Compound 93] shows EC50 strictly lower than 600 nM.
Result :: class 1

###

assaySystem: Recombinant Human NF-kappaB-Inducing Kinase (NIK/MAP3K14) (Homo sapiens)
Sequence (Q99558 whole entry): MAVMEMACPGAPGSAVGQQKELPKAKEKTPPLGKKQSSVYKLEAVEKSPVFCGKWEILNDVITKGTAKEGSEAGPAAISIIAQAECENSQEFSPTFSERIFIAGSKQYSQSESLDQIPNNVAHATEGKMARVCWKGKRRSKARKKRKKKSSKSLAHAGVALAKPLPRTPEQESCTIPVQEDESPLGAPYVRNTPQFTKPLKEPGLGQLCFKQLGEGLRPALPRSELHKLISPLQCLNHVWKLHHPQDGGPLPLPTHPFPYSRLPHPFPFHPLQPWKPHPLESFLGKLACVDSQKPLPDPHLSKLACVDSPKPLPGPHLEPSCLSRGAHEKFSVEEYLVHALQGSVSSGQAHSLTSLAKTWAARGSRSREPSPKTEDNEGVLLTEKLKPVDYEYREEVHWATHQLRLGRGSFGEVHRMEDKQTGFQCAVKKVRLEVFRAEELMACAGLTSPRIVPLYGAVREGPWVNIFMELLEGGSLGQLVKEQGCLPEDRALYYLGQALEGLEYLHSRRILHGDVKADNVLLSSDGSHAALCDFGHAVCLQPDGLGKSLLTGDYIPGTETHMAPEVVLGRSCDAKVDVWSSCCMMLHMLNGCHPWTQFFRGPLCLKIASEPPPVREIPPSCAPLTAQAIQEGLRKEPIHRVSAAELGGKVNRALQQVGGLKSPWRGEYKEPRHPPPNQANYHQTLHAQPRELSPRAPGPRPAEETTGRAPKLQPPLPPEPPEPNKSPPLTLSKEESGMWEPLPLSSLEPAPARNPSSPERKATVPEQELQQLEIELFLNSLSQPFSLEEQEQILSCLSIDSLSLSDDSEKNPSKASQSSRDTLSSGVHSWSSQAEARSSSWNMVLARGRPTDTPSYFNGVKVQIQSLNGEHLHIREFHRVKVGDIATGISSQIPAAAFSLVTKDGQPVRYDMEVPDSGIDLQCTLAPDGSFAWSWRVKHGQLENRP
protocolDescription: Biological Assay A2: inhibition of auto-phosphorylation of recombinant human NIK/MAP3K14 (AlphaScreen)
Type: biochemical
appliedConditions: auto-phosphorylation; averaged over all measurements on all batches; read-out: αscreen IC50
Description: Inhibition of Auto-Phosphorylation of Recombinant Human NF-kappaB-Inducing Kinase (NIK/MAP3K14) Activity (AlphaScreen®) NIK/MAP3K14 auto-phosphorylation activity was measured using the AlphaScreen® (αscreen) format (Perkin Elmer). All compounds tested were dissolved in dimethyl sulfoxide (DMSO) and further dilutions were made in assay buffer. […] Protein A Acceptor and Glutathione-Donor beads were added before reading using an EnVision® Multilabel Plate Reader (Perkin Elmer). […]
Can you tell me log10(IC50) for the items I'm about to list?
Plainly stated, the numbers are log10 of IC50 given in nM.

- compound: "CC(O)(C#Cc1cc2c(-c3nc(N)ncc3F)cn(C3CN(C4CCCC4)C3)c2cn1)C1CC1 (stereo not shown)"
  log10(IC50): 2.32
- compound: "CC(C)(O)C#Cc1cc2c(-c3nc(N)ncc3C(F)(F)F)cn(CC(C)(C)O)c2cn1"
  log10(IC50): 1.58
- compound: "COCc1cnc(N)nc1-c1cn(C(C)C)c2cnc(C#CC(C)(O)C3CC3)cc12 (stereo not shown)"
  log10(IC50): 1.87
- compound: "CC(C)(O)C#Cc1cc2c(-c3ccnc(N)n3)cn(CC3CCOCC3)c2cn1"
  log10(IC50): 2.26
- compound: "COCCN1CCC(n2cc(-c3nc(N)ncc3F)c3cc(C#CC(C)(O)C4CC4)ncc32)CC1 (stereo not shown) [Compound 126]"
  log10(IC50): 2.15
- compound: "CC(O)(C#Cc1cc2c(-c3nc(N)ncc3F)cn(C3CN(C4CC4)C3)c2cn1)CF (stereo not shown)"
  log10(IC50): 1.60
- compound: "Cc1cnc(N)nc1-c1c[nH]c2cnc(C#CC(C)(C)O)cc12"
  log10(IC50): 1.23
- compound: "CNc1nccc(-c2cn(CC(C)(C)O)c3cnc(C#CC(C)(C)O)cc23)n1"
  log10(IC50): 1.67

Your task in this section: give log10(IC50) for each listed record.
1. COCCn1cc(-c2nc(N)ncc2F)c2cc(C#CC(C)(C)O)ncc21
2. CC(C)(O)Cn1cc(-c2ccnc(N)n2)c2cc(C#CC3(O)CCCCC3)ncc21

Result ::
1: 1.23; 2: 1.75

Your task in this section: give log10(IC50) for each listed record.
1. CC(C)(O)C#Cc1cc2c(-c3ccnc(N)n3)c[nH]c2cn1
2. COCC(C)N1CC(n2cc(-c3nc(N)ncc3F)c3cc(C#CC(C)(O)C4CC4)ncc32)C1 (stereo not shown)

Result ::
[0.60, 2.53]

Your task in this section: give log10(IC50) for each listed record.
1. CN1CC(n2cc(-c3ccnc(N)n3)c3cc(C#CC(C)(C)O)ncc32)C1
2. CCN1CCCC(n2cc(-c3nc(N)ncc3F)c3cc(C#CC(C)(O)C4CC4)ncc32)C1 (stereo not shown)
3. CC(O)(C#Cc1cc2c(-c3nc(N)ncc3F)cn(C3CCN(CCC(F)(F)F)CC3)c2cn1)C1CC1 (stereo not shown)
4. COCCCn1cc(-c2ccnc(N)n2)c2cc(C#CC(C)(C)O)nc(C)c21
5. CC(C)(O)C#Cc1cc2c(-c3ccnc(N)n3)cn(C(C)(C)CO)c2cn1

Result ::
[1.62, 2.04, 1.76, 1.83, 1.72]

Your task in this section: give log10(IC50) for each listed record.
1. CC(C)(O)Cn1cc(-c2ccnc(N)n2)c2cc(C#CC(C)(O)c3nccs3)ncc21 (stereo not shown)
2. CC(C)(O)C#Cc1cc2c(-c3nc(N)ncc3F)cn(CC(C)(C)O)c2cn1

Result ::
[1.85, 1.46]

Your task in this section: give log10(IC50) for each listed record.
1. COCCCn1cc(-c2nc(N)ncc2F)c2cc(C#CC(C)(C)O)ncc21
2. CC(C)(O)Cn1cc(-c2ccnc(N)n2)c2cc(C#CC(C)(O)CC3CC3)ncc21 (stereo not shown)
3. CNc1ncc(F)c(-c2cn(CCCOC)c3cnc(C#CC(C)(C)O)cc23)n1

Result ::
1: 1.20; 2: 1.76; 3: 1.64

Your task in this section: give log10(IC50) for each listed record.
1. CCN1CCC(n2cc(-c3nc(N)ncc3F)c3cc(C#CC(C)(O)C4CC4)ncc32)C1 (stereo not shown)
2. COCCn1cc(-c2ccnc(N)n2)c2cc(C#CC(C)(O)C3CC3)ncc21 (stereo not shown)
3. CCN1CCC(n2cc(-c3nc(N)ncc3F)c3cc(C#CC(C)(O)C4CC4)ncc32)CC1 (stereo not shown)
4. COCCCn1cc(-c2ccnc(N)n2)c2cc(C#CC(C)(C)O)ncc21

Result ::
1. 1.82
2. 1.60
3. 1.98
4. 1.32

Your task in this section: give log10(IC50) for each listed record.
1. CCN1CCC(n2cc(-c3ccnc(N)n3)c3cc(C#CC(C)(C)O)ncc32)CC1
2. COCCn1cc(-c2ccnc(N)n2)c2cc(C#CC(C)(C)O)ncc21
3. COCCCn1cc(-c2nc(N)ncc2F)c2cc(C#CC3(O)CCC3)ncc21
4. CC(C)(O)C#Cc1cc2c(-c3ccnc(N)n3)cn(CCC#N)c2cn1
5. CC(C)(O)C#Cc1cc2c(-c3nc(N)ncc3F)c[nH]c2cn1
6. CC(C)(O)C#Cc1cc2c(-c3ccnc(N)n3)cn(CC3CCOC3)c2cn1 (stereo not shown)
7. COC(C)(C)Cn1cc(-c2nc(N)ncc2F)c2cc(C#CC(C)(O)C3CC3)ncc21 (stereo not shown)

Result ::
[1.67, 1.68, 0.85, 1.36, 0.30, 1.04, 1.58]

Query :: Request the reported log10(IC50) associated with CNc1ncc(F)c(-c2cn(CCCOC)c3cnc(C#CC4(O)CCCC4)cc23)n1
Result :: 2.11
